tested on: panel of five human cell lines (HeLa, A549, HL-60, Jurkat, K562); assay: Antiproliferative assay, summary over the cell line panel; format: cell-based; settings: Homo sapiens, read-out: IC50 against HeLa, HL-60, Jurkat and K562 cells
READOUT_NAME: IC50

Summary: COc1cc(C(=O)c2sc3ccccc3c2-c2ccccc2)cc(OC)c1OC , panel of five human cell lines (HeLa, A549, HL-60, Jurkat, K562), IC50 = 1500 to 2100 nM
